assay system: Peregrin (Homo sapiens)
stated conditions: Compound concentration 20.0 uM
Simple rule here: ΔTm less than -0.07 °C is criterion met, otherwise criterion not met.

>  <test smiles>
CCCN(CCC)c1ccc(C=O)cc1Br

>  <assigned category>
criterion met

$$$$
>  <test smiles>
CC(C)(OCc1cc(-c2cccc(OC3CC3)c2)n(-c2ccccc2Cl)n1)C(=O)O

>  <assigned category>
criterion not met

$$$$
>  <test smiles>
CCOc1ccc(Cc2cc([C@]34OC[C@](CO)(O3)[C@@H](O)[C@H](O)[C@H]4O)ccc2Cl)cc1

>  <assigned category>
criterion not met

$$$$
>  <test smiles>
O=C(NCc1ccc(F)cc1)C1CCN(S(=O)(=O)c2cc(Cl)cc(Cl)c2)CC1

>  <assigned category>
criterion not met

$$$$
>  <test smiles>
CS(=O)(=O)c1ccc(Oc2cc(F)cc(C#N)c2)c2c1[C@H](O)C(F)(F)C2

>  <assigned category>
criterion not met

$$$$
>  <test smiles>
Oc1ccc(-c2c(-c3ccccc3)nn3c(C(F)(F)F)cc(C(F)(F)F)nc23)cc1

>  <assigned category>
criterion met

$$$$
>  <test smiles>
CN(C(=O)CCCOc1ccc2[nH]c(=O)ccc2c1)C1CCCCC1

>  <assigned category>
criterion not met

$$$$
>  <test smiles>
Nc1ncnc2c1ncn2[C@@H]1O[C@H](C[C@@H](N)CC[C@H](N)C(=O)O)[C@@H](O)[C@H]1O

>  <assigned category>
criterion met

$$$$
>  <test smiles>
C[C@@H]1CN(c2ncc(Cl)c(Nc3ccc4c(c3)n(CCC(C)(C)O)c(=O)n4C)n2)C[C@H](C)C1(F)F

>  <assigned category>
criterion met

$$$$
>  <test smiles>
CNCc1ccc(-c2cc3cc(F)cc(C(N)=O)c3o2)cc1

>  <assigned category>
criterion not met

$$$$
>  <test smiles>
Cc1[nH]c2c(N3CCCCC3)c(-c3ccccc3)nn2c(=O)c1-c1ccc(O)cc1

>  <assigned category>
criterion met

$$$$
>  <test smiles>
CC(C)CCn1c(CN2CCN(C(=O)C3CC3)CC2)nc2c1c(=O)n(C)c(=O)n2C

>  <assigned category>
criterion not met

$$$$
>  <test smiles>
CCCCCCCC(=O)N[C@H](CN1CCCC1)[C@H](O)c1ccc2c(c1)OCCO2

>  <assigned category>
criterion not met

$$$$
>  <test smiles>
Cc1nc(-c2cnc(NC(C)C)n(C)c2=O)ccc1Oc1ccnc(-c2cnn(C)c2)c1

>  <assigned category>
criterion met

$$$$
>  <test smiles>
Cc1noc(C)c1-c1cc(Cl)c(Nc2ccccc2C(=O)O)c(Cl)c1

>  <assigned category>
criterion met

$$$$
>  <test smiles>
CCc1ccccc1NC(=O)CSC(=O)NNC(=O)[C@H](Cc1c[nH]c2ccccc12)NC(=O)OC(C)(C)C

>  <assigned category>
criterion met

$$$$
>  <test smiles>
Cn1ncc2c(-c3c(-c4ccc(F)cn4)nn4c3COC(C)(C)C4)ccnc21

>  <assigned category>
criterion met

$$$$
